// data source = PubChem BioAssay (NCI)

tested on: MDA-MB-435; assay: NCI tumour cell line growth inhibition, 48 h
*1 amine or outer side, *2 acyl side, *3 side chain or, on linkers, in order; H or OH if unused. Where a SMILES comes first, the peptide text is derived from it. Bridges are numbered along the chain shown (N, C = ends). [ ]: non-standard residue; d: D form. X35 = CC[C@H](C)[C@@H](N[*:1])[C@@H](O)CC(=O)O[C@H](C(=O)[C@H](C)C(=O)[*:2])C(C)C; NMeY = CN[C@@H](Cc1ccc(O)cc1)C(=O)O
parameter measured: TGI

| compound | experimental target | TGI |
| --- | --- | --- |
| O=C1C=C(NCCO)c2nccc3c2c1nc1ccccc13 | MDA-MB-435 | > 100 µM |

Would you mind listing TGI for each of the following compounds?
1. CC(Br)CN1CCOCC1 (centres undefined)
2. CC[C@H](C)[C@H]1NC(=O)[C@@H](N)[C@@H](C)OC(=O)[C@H](Cc2ccc(OC)cc2)N(C)C(=O)[C@@H]2CCCN2C(=O)[C@H](CC(C)C)NC(=O)[C@@H](C)C(=O)[C@H](C(C)C)OC(=O)C[C@@H]1O (H-T[X35]LP[NMeY](Me); ester 1-C)
3. COc1cc(OCc2ccccc2)c2c(CCC(=O)O)cc(=O)oc2c1 (tested in a mixture with another compound)

Response:
> 100 µM
56.1 µM
> 100 µM

---

test system: M14 melanoma; test: NCI tumour cell line growth inhibition, 48 h
parameter measured: GI50

Illustrative cases are given below, each with its answer.
| molecule | assay result |
| --- | --- |
| COC(=O)[C@]12CC[C@@H](C)[C@H](C)[C@@H]1C1=CC[C@@H]3[C@@]4(C)C(C=O)=C[C@@](C)(CO)[C@@H]4[C@H](O)C[C@@]3(C)[C@]1(C)CC2 | 4130 nM |
| C=CCn1c2ccccc2c2c3c(c4c5ccccc5n(CC=C)c4c21)C(=O)N(O)C3=O | 2310 nM |
| Nc1[nH]nc2nc(-c3cc(Cl)ccc3Cl)cc(-c3ccc(F)cc3)c12 | 27900 nM |
| Cc1sc(C(=O)c2cncnc2N[C@@H]2C[C@H](COS(N)(=O)=O)[C@@H](O)C2)cc1[C@@H]1NCCc2ccc(Cl)cc21 | 572 nM |
| COc1cccc2c1C(=O)c1c(O)c3c(c(O)c1C2=O)C[C@@](O)(C(=O)CO)CC3OC1CC(N)C(OC2CCCCO2)C(C)O1 (stereo partly drawn) | 52.9 nM |
| CN1CCN(CCCNC(=O)c2c3c(n4ccccc24)C(=O)c2ncccc2C3=O)CC1 | 1210 nM |

Would you mind listing GI50 for each of the following molecules?
1. COc1cc(C(=O)/C=C/c2cc(-c3ccc4c(c3)OCO4)n[nH]2)cc(OC)c1OC
2. COc1ccc(OC)c(Nc2nc3nonc3nc2Nc2cccc(Br)c2)c1

Response:
1. 2910 nM
2. 1500 nM

---

test system: A549 NSCLC; test: NCI tumour cell line growth inhibition, 48 h; in the data active means GI50 below about 0.43 µM; inactive means the rest
Use one of these outcomes when replying: active, inactive

| molecule | experimental target | assigned category |
| --- | --- | --- |
| CN(C)c1ccc(/C=C(\C#N)c2cc3ccccc3[nH]2)cc1 | A549 NSCLC | inactive |

Prompt: Each molecule tested received a call. Report the one for COC(=O)[C@]12CC[C@@H](C)[C@H](C)[C@@H]1C1=CC[C@@H]3[C@@]4(C)C(C=O)=C[C@@](C)(CO)[C@@H]4[C@H](O)C[C@@]3(C)[C@]1(C)CC2 .
Response: inactive
